The measured values listed here are drawn from PubChem BioAssay AID743061.

target: Methionine--tRNA ligase, mitochondrial (Homo sapiens); assay: inhibitors of human mitochondrial MetRS, late-stage follow-up, selectivity assay for T. brucei MetRS inhibitor project, biochemical, radioactivity, round 1 (AID 743061); details: recombinant human mtMetRS, [3H]Met tRNA charging, at 1 µM, stronger effect = higher value;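 further: 0% = DMSO with full reaction and 100% = DMSO wells lacking tRNA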
recorded_metric: inhibition (%)
Give bare numbers, in %.

Some solved entries appear below for comparison.
>  <compound>
O=C(Cn1cc(C(=O)C2CC2)c2ccccc21)Nc1cccc(C(F)(F)F)c1

>  <inhibition [%]>
0.73

$$$$
>  <compound>
Cc1cccc2[nH]c(CCN(C)C(=O)c3cccc(C4CCNC4)c3)nc12 (stereo unspecified)

>  <inhibition [%]>
-6.15

$$$$
>  <compound>
O=C1[C@@H]2Cc3c([nH]c4ccccc34)C(c3cccc([N+](=O)[O-])c3)N2C(=O)CN1CCCO (stereo partly specified)

>  <inhibition [%]>
-17.4

$$$$
>  <compound>
O=C(NCc1nc2ccccc2[nH]1)C1=C[C@H](C2CC2)C[C@H](OCc2ccc(CO)cc2)O1

>  <inhibition [%]>
7.99

$$$$

For every listed record, write down its inhibition.
1. O=C(NCc1nc2ccccc2[nH]1)C1=C[C@@H](c2ccc(Br)cc2)C[C@@H](OCc2ccc(CO)cc2)O1
2. CCN(CC)C(=O)C(=O)c1cn(CC(=O)N2CCCc3ccccc32)c2ccccc12

-11.6
-14.3

For every listed record, write down its inhibition.
1. O=C(N/C(=C\c1cccnc1)c1nc2ccccc2[nH]1)c1cccc(Br)c1
2. COc1ccc(NC(=O)CSc2nnc3c4cc(C)ccc4n(C)c3n2)cc1
3. Cc1ccc2[nH]c3nc(SCC(=O)Nc4ccc(C(F)(F)F)cc4)nnc3c2c1
4. COc1ccccc1NC(=O)CSc1nnc2c(n1)[nH]c1ccc(C)cc12
5. O=C(NCCc1nc2ccccc2[nH]1)c1c(F)cccc1F
6. Cc1ccc(C(=O)NCCc2nc3ccccc3[nH]2)cc1C
7. O=C(C[C@H]1C(=O)N(Cc2ccccc2)C[C@@H]1c1ccc(Br)cc1)Nc1ccc(Br)cc1
8. O=C(NCc1nc2ccccc2[nH]1)C1=C[C@@H](c2ccc3c(c2)OCO3)C[C@@H](OCCCCO)O1

1. -19.7
2. -0.75
3. -10
4. -3.56
5. 0.56
6. 1.34
7. -13
8. -3.63
